- System: Beet Armyworm (Spodoptera exigua, LAPHEG) second instar larvae
- experiment: Bioassay on Beet Armyworm (BAW), 128-well diet tray assay
- Type: in vivo
- condition label: Beet Armyworm, Table ABC Biological Results, read-out: BAW rating
- Experimental: Certain molecules disclosed in this document were tested against BAW, CEW, and CL using procedures described in the following examples. In the reporting of the results, the “BAW, CEW, & CL Rating Table” was used (See Table Section). […]
Entries annotated with measured pest or weed control at 50 µg/cm2

Consider the reported pest or weed control at 50 µg/cm2 for these molecules:
>>> measured("C[C@H](NC(=O)CCC(F)(F)F)NC(=O)c1ccc(/C(F)=C/C(c2cc(Br)cc(Br)c2)C(F)(F)F)cc1C(F)(F)F (some centres unmarked) [F23]")
"50 to 100%"
>>> measured("Cc1cc(C(/C=C(\\F)c2ccc(C(=O)N[C@H](C)NC(=O)CC(F)(F)F)c(C(F)(F)F)c2)C(F)(F)F)cc(Cl)c1Cl (some centres unmarked) [PF4]")
"50 to 100%"
>>> measured("C[C@H](NC(=O)CCC(F)(F)F)NC(=O)c1ccc(/C(F)=C/C(c2cc(Cl)c(Cl)c(Cl)c2)C(C)(F)F)cc1C(F)(F)F (some centres unmarked) [F10]")
"50 to 100%"

We now examine a further molecule.
Inquiry: Please report the recorded pest or weed control at 50 µg/cm2 for C[C@H](NC(=O)CCC(F)(F)F)NC(=O)c1ccc(/C(F)=C/C(c2cc(Cl)c(Cl)c(Cl)c2)C(F)(F)F)cc1Br (some centres unmarked) [F3] .
Reply text: 50 to 100%

====

- Test system: Beet Armyworm (Spodoptera exigua, LAPHEG) second instar larvae
- experiment: Bioassay on Beet Armyworm (BAW), 128-well diet tray assay
- Format: in vivo
- condition label: Beet Armyworm, Table ABC Biological Results, read-out: BAW rating
Item-by-item account of pest or weed control at 50 µg/cm2

# count of solved cases: 6
>>> measured("C[C@H](NC(=O)CC(F)(F)F)NC(=O)c1ccc(/C(F)=C/C(c2cc(Cl)c(Cl)c(Cl)c2)C(F)(F)F)cc1Cl (stereo partly shown)")
"50 to 100%"
>>> measured("CCC(F)(F)C(/C=C(\\F)c1ccc(C(=O)N[C@H](C)NC(=O)CC(F)(F)F)c(C(F)(F)F)c1)c1cc(Cl)c(Cl)c(Cl)c1 (stereo partly shown)")
"50 to 100%"
>>> measured("C[C@H](NC(=O)CC(F)(F)F)NC(=O)c1ccc(/C(F)=C/C(c2cc(Cl)c(Cl)c(Cl)c2)C(C)(F)F)cc1C(F)(F)F (stereo partly shown)")
"50 to 100%"
>>> measured("C[C@H](NC(=O)CCC(F)(F)F)NC(=O)c1ccc(/C(F)=C/C(c2cc(Cl)c(Cl)c(Cl)c2)C(F)(F)F)cc1Cl (stereo partly shown)")
"50 to 100%"
>>> measured("C[C@@H](NC(=O)c1ccc(/C(F)=C/C(c2cc(Cl)c(Cl)c(Cl)c2)C(F)(F)F)cc1C(F)(F)F)NC(=O)C1CC1 (stereo partly shown)")
"50 to 100%"
>>> measured("C[C@H](NC(=O)CCC(F)(F)F)NC(=O)c1ccc(/C(F)=C/C(c2ccc(Cl)c(Cl)c2)C(F)(F)F)cc1C(F)(F)F (stereo partly shown)")
"50 to 100%"

Now take the following molecule into account.
Inquiry: Enter reported pest or weed control at 50 µg/cm2 observed with Beet Armyworm (Spodoptera exigua, LAPHEG) second instar larvae for C[C@H](NC(=O)CC(F)(F)F)NC(=O)c1ccc(/C(F)=C/C(c2ccc(Cl)c(F)c2)C(F)(F)F)cc1C(F)(F)F (stereo partly shown)
Reply text: 50 to 100%

====

Measured pest or weed control at 50 µg/cm2, listed per entry for reference.
- Tested on: Cabbage Looper (Trichoplusia ni, TRIPNI) second instar larvae
- experiment: Bioassay on Cabbage Looper (CL), 128-well diet tray assay
- Type: in vivo
- condition label: Cabbage Looper, Table ABC Biological Results, read-out: CL rating

>>> measured("CCC(=O)N[C@@H](C)NC(=O)c1ccc(/C(F)=C/C(c2cc(Cl)c(Cl)c(Cl)c2)C(F)(F)F)cc1C(F)(F)F (stereo partly shown) [F34]")
"50 to 100%"

Inquiry: Could you share which pest or weed control at 50 µg/cm2 value was measured for C[C@H](NC(=O)CCC(F)(F)F)NC(=O)c1ccc(/C(F)=C/C(c2ccc(F)c(Cl)c2)C(F)(F)F)cc1C(F)(F)F (stereo partly shown) [PF3] ?
Reply text: 50 to 100%

Inquiry: Quick check: pest or weed control at 50 µg/cm2 of Cc1cc(C(/C=C(\F)c2ccc(C(=O)N[C@H](C)NC(=O)CC(F)(F)F)c(C(F)(F)F)c2)C(F)(F)F)cc(Cl)c1Cl (stereo partly shown) [PF4] ?
Reply text: 50 to 100%

Inquiry: Dear colleague, I am looking for the recorded pest or weed control at 50 µg/cm2 of the following compound: C[C@H](NC(=O)CC(F)(F)F)NC(=O)c1ccc(/C(F)=C/C(c2cc(Br)c(Cl)c(Br)c2)C(F)(F)F)cc1C(F)(F)F (stereo partly shown) [F26]
Reply text: 50 to 100%

Inquiry: What value of pest or weed control at 50 µg/cm2 has been reported for the following compound? C[C@H](NC(=O)CCC(F)(F)F)NC(=O)c1ccc(/C(F)=C/C(c2ccc(Cl)c(Cl)c2)C(F)(F)F)cc1C(F)(F)F (stereo partly shown) [F14]
Reply text: 50 to 100%

Inquiry: Please give the measured pest or weed control at 50 µg/cm2 for this compound: Cc1cc(C(/C=C(\F)c2ccc(C(=O)N[C@H](C)NC(=O)CC(F)(F)F)c(C(F)(F)F)c2)C(F)(F)F)cc(C)c1Cl (stereo partly shown) [F24]
Reply text: 50 to 100%

Inquiry: Which pest or weed control at 50 µg/cm2 is reported for this compound? C[C@@H](NC(=O)c1ccc(/C(F)=C/C(c2cc(Cl)c(Cl)c(Cl)c2)C(F)(F)F)cc1C(F)(F)F)NS(=O)(=O)CC(F)(F)F (stereo partly shown) [F28]
Reply text: 50 to 100%

====

The following molecules are shown together with reported mortality at 5 µg/cm2 values.
- System: Beet Armyworm (Spodoptera exigua, LAPHEG) second instar larvae
- experiment: Bioassay on Beet Armyworm (BAW), 128-well diet tray assay
- Type: in vivo
- condition label: 5 μg/cm^2 on artificial diet, read-out: Percent control (or mortality) BAW
Quick note: unit goes after the number.

>>> measured("Cc1cc(/C(F)=C/C(c2cc(Cl)c(Cl)c(Cl)c2)C(F)(F)F)ccc1C(=O)N[C@H](C)NC(=O)CCC(F)(F)F (stereo partly drawn)")
"100%"
>>> measured("C[C@H](NC(=O)CCC(F)(F)F)NC(=O)c1ccc(/C(F)=C/C(c2cc(Cl)c(Cl)c(Cl)c2)C(F)(F)F)cc1Br (stereo partly drawn)")
"100%"

Let us move to another entry and its mortality at 5 µg/cm2.
Inquiry: Entry under review: C[C@H](NC(=O)CC(F)(F)F)NC(=O)c1ccc(/C(F)=C/C(c2cc(Cl)c(Cl)c(Cl)c2)C(F)(F)F)cc1Cl (stereo partly drawn) . Reported mortality at 5 µg/cm2?
Reply text: 100%

====

- Tested on: Cabbage Looper (Trichoplusia ni, TRIPNI) second instar larvae
- experiment: Bioassay on Cabbage Looper (CL), 128-well diet tray assay
- Format: in vivo
- condition label: Cabbage Looper, Table ABC Biological Results, read-out: CL rating
outcome measure: pest or weed control at 50 µg/cm2

Field: example entries. Status: answers known.
>>> measured("C[C@H](NC(=O)CC(F)(F)F)NC(=O)c1ccc(/C(F)=C/C(c2cc(Cl)c(Cl)c(Cl)c2)C(F)(F)F)cc1Cl (stereo partly drawn) [F7]")
"50 to 100%"
>>> measured("Cc1cc(C(/C=C(\\F)c2ccc(C(=O)N[C@H](C)NC(=O)CCC(F)(F)F)c(C(F)(F)F)c2)C(F)(F)F)cc(C)c1Cl (stereo partly drawn) [F25]")
"50 to 100%"
>>> measured("C[C@H](NC(=O)CC(F)(F)F)NC(=O)c1ccc(/C(F)=C/C(c2ccc(Br)c(Cl)c2)C(F)(F)F)cc1C(F)(F)F (stereo partly drawn) [PF8]")
"50 to 100%"
>>> measured("C[C@H](NC(=O)CC(F)(F)F)NC(=O)c1ccc(/C(F)=C/C(c2ccc(Cl)c(Br)c2)C(F)(F)F)cc1C(F)(F)F (stereo partly drawn) [F37]")
"50 to 100%"
>>> measured("C[C@H](NC(=O)CCC(F)(F)F)NC(=O)c1ccc(/C(F)=C/C(c2cc(Cl)c(Br)c(Cl)c2)C(F)(F)F)cc1C(F)(F)F (stereo partly drawn) [F15]")
"50 to 100%"
>>> measured("Cc1cc(/C(F)=C/C(c2cc(Cl)c(Cl)c(Cl)c2)C(F)(F)F)ccc1C(=O)N[C@H](C)NC(=O)CCC(F)(F)F (stereo partly drawn) [F2]")
"50 to 100%"
>>> measured("CCC(F)(F)C(/C=C(\\F)c1ccc(C(=O)N[C@H](C)NC(=O)CC(F)(F)F)c(C(F)(F)F)c1)c1cc(Cl)c(Cl)c(Cl)c1 (stereo partly drawn) [F20]")
"50 to 100%"
>>> measured("C[C@H](NC(=O)CC(F)(F)F)NC(=O)c1ccc(/C(F)=C/C(c2cc(Cl)c(Br)c(Cl)c2)C(F)(F)F)cc1C(F)(F)F (stereo partly drawn) [F31]")
"50 to 100%"
>>> measured("C[C@H](NC(=O)CC(F)(F)F)NC(=O)c1ccc(/C(F)=C/C(c2cc(Cl)cc(Cl)c2)C(F)(F)F)cc1C(F)(F)F (stereo partly drawn) [F11]")
"50 to 100%"
>>> measured("C[C@H](NC(=O)CCC(F)(F)F)NC(=O)c1ccc(/C(F)=C/C(c2cc(Cl)c(Cl)c(Cl)c2)C(F)(F)F)cc1Br (stereo partly drawn) [F3]")
"50 to 100%"

Inquiry: Entry under review: C[C@H](NC(=O)CCC#N)NC(=O)c1ccc(/C(F)=C/C(c2cc(Cl)c(Cl)c(Cl)c2)C(F)(F)F)cc1C(F)(F)F (stereo partly drawn) [F41] . Reported pest or weed control at 50 µg/cm2?
Reply text: 50 to 100%

Inquiry: Look at this compound and give its reported pest or weed control at 50 µg/cm2. C[C@H](NC(=O)CC(F)(F)F)NC(=O)c1ccc(/C(F)=C/C(c2cc(Cl)c(Cl)c(Cl)c2)C(F)(F)F)cc1Br (stereo partly drawn) [F4]
Reply text: 50 to 100%
